- system.tested: CYP3A4 (Homo sapiens, UniProt P08684)
- Sequence (P08684 whole entry): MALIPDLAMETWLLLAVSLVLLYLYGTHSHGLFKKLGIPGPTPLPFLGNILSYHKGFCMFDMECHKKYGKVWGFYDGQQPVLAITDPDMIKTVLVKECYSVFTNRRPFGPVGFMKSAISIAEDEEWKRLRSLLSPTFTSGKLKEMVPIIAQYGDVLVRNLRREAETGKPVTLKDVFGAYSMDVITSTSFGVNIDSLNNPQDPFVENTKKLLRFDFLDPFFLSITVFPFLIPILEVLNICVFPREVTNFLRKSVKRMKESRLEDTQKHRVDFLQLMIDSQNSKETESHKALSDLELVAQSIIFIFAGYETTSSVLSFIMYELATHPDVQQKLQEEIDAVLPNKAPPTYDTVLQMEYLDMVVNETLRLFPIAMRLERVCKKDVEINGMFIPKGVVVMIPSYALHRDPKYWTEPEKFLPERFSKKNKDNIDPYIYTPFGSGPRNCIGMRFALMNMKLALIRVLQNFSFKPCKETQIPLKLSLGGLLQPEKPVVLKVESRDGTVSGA
- protocol.details: Determination of compound Kiapp against recombinant CYP3A4 enzyme (BFC fluorescent substrate)
- Type: biochemical
- details: Baculo. enzyme preparation, read-out: Kiapp (BFC, Baculo.)
Item-by-item account of pKi
In simple prose, pKi is minus the logarithm base ten of a concentration in moles per litre.

// known answers, use as guide
{"molecule": "COc1cncc(NS(=O)(=O)c2ccccc2C(=O)NCC2(O)C3CC4CC(C3)CC2C4)c1 (stereo not shown)", "pKi": 7.44}
{"molecule": "Cc1cncc(NS(=O)(=O)c2ccccc2C(=O)NC(C)CC(C)C)c1 (stereo not shown)", "pKi": 7.11}

Problem: Hi! What's the reported pKi for `COc1cncc(NS(=O)(=O)c2ccccc2C(=O)NCc2ccccc2OC)c1` on CYP3A4 (Homo sapiens, UniProt P08684)?
Solution: 6.77

Problem: Same question for `Cc1cncc(NS(=O)(=O)c2ccccc2C(=O)N(C)CCC(C)C)c1` please.
Solution: 7.51
